- System: HT29 colon
- test_name: NCI-60 one-dose screen, 48 h
- measurement_context: 10 µM unless noted
This is part of a sample that, as a whole, favours compounds with a hit. Of some 83,000 tested, about 20% had one in any assay. Calls of active or inactive are those of the source. The calls were made as follows: active = growth percent below 10; inactive = the rest.
Labels: yes (1) (active), no (0) (inactive)

[[record]]
molecule = "COc1cc(/C=C/c2cc(/C=C/c3ccc(O)c(OC)c3)n(-c3c(C)cccc3C)c(=O)n2)ccc1O"
assigned_class = "yes (1)"

[[record]]
molecule = "Cn1cc(-c2nonc2-c2c[nH]c3ccc(F)cc23)c2cccnc21"
assigned_class = "no (0)"

[[record]]
molecule = "Cc1cc(N2CCSCC2)nc(NC2CCCC(Nc3ccnc4cc(Cl)ccc34)C2)n1 (stereo not given)"
assigned_class = "yes (1)"

[[record]]
molecule = "COc1ccc(S(=O)(=O)N2CC3(COC3)C2)cc1NC(=O)c1[nH]c(C)c2c1CCCCC2=O"
assigned_class = "no (0)"

[[record]]
molecule = "CCCc1cc(=O)n2c(C(=O)Nc3cccc(C(=O)OCC)c3)c(C(=O)Nc3ccc(F)cc3)sc2n1"
assigned_class = "no (0)"

[[record]]
molecule = "C=CC(=O)Nc1cccc(-c2nc(SC)nc(Nc3cccc(OC)c3)c2C#N)c1"
assigned_class = "no (0)"

[[record]]
molecule = "Cc1cc(N2CCOCC2)nc(N[C@@H]2CCC[C@H](Nc3ccnc4cc(Cl)ccc34)C2)n1"
assigned_class = "yes (1)"

[[record]]
molecule = "Cc1ccc2c(C(C[N+](=O)[O-])c3ccco3)c(-c3ccccc3)[nH]c2c1 (stereo not given)"
assigned_class = "yes (1)"

[[record]]
molecule = "COc1cccc(/C=N/NC(=O)c2ccccc2Nc2ccnc(C(F)(F)F)c2)c1O"
assigned_class = "no (0)"

[[record]]
molecule = "NC(=O)c1cc(Br)ccc1NC(=O)/C=C/c1ccccc1"
assigned_class = "no (0)"

[[record]]
molecule = "COc1cc(/C=C/c2cc(/C=C/c3ccc(O)c(OC)c3)n(-c3c(Cl)cccc3Cl)c(=O)n2)ccc1O"
assigned_class = "yes (1)"

[[record]]
molecule = "O=C(/C=C/c1cccc(Cl)c1)c1ccc(O)c(CN2CCN(c3cc4c(cc3F)c(=O)c(C(=O)O)cn4C3CC3)CC2)c1"
assigned_class = "yes (1)"

[[record]]
molecule = "Cc1cc(Nc2ccc(C)c(Cl)c2)n2nc(C(F)(F)F)nc2n1"
assigned_class = "no (0)"

[[record]]
molecule = "Cc1ccc(C(SCC(N)C(=O)O)(c2ccccc2)c2ccc(C)cc2)cc1 (stereo not given)"
assigned_class = "yes (1)"

[[record]]
molecule = "CN1CCN(c2nc(NCCCCNc3ccnc4cc(Cl)ccc34)c3ccccc3n2)CC1"
assigned_class = "yes (1)"

[[record]]
molecule = "COc1ccc(CCNc2nc(SC)nc(-c3cccc([N+](=O)[O-])c3)c2C#N)cc1OC"
assigned_class = "no (0)"

[[record]]
molecule = "NC(=NCCCOc1ccc(Cl)cc1)Nc1ccc(C(F)(F)F)cc1"
assigned_class = "yes (1)"

[[record]]
molecule = "COC[C@H](C)n1c(C2CCOCC2)nc2cnc3cc(-c4c(C)noc4C)c(OC)cc3c21"
assigned_class = "no (0)"

[[record]]
molecule = "C[n+]1ccccc1/C=C/c1ccc2cccc(O)c2n1"
assigned_class = "no (0)"

[[record]]
molecule = "CC1=C[C@H]2c3c(c(O)c(O)c4oc5cc(O)ccc5c(=O)c34)[C@H](c3cc(O)c(O)c4oc5cc(O)ccc5c(=O)c34)[C@H]2C(C)(C)C1"
assigned_class = "no (0)"

[[record]]
molecule = "O=C1/C(=C/c2ccccc2)SC(=S)N1CCc1ccc(O)cc1"
assigned_class = "no (0)"

[[record]]
molecule = "CCCCC/C(C=C(C#N)C#N)=C/c1ccccc1"
assigned_class = "no (0)"

[[record]]
molecule = "CC1CCNC(C)C1 (stereo not given)"
assigned_class = "no (0)"

[[record]]
molecule = "COc1cc2c(cc1-c1c(C)noc1C)ncc1nc(C3CCCCC3)n([C@H](C)COC(F)F)c12"
assigned_class = "no (0)"

[[record]]
molecule = "COc1ccc(-n2nc(C)c3c(Nc4ccc(NC(=O)Nc5c(Cl)cccc5Cl)cc4)ncnc32)cc1"
assigned_class = "no (0)"

[[record]]
molecule = "O=C1c2cc3c(cc2-c2c1c1cc(F)c(F)cc1c(=O)n2CCCn1ccnc1)OCO3"
assigned_class = "yes (1)"

[[record]]
molecule = "Cc1cc(C)nc(SC2=C(Nc3cccc(Cl)c3C)C(=O)N(Cc3ccccc3)C2=O)n1"
assigned_class = "no (0)"

[[record]]
molecule = "Clc1ccc2c(NCCNc3nc(N4CCCCC4)nc4ccccc34)ccnc2c1"
assigned_class = "yes (1)"

[[record]]
molecule = "NC(CSC(c1ccccc1)(c1ccccc1)c1ccc(Cl)cc1)C(=O)O (stereo not given)"
assigned_class = "yes (1)"

[[record]]
molecule = "C=CCSSC1N=CNc2nc[nH]c21 (stereo not given)"
assigned_class = "no (0)"

[[record]]
molecule = "COc1ccc(Nc2c3c4c(cccc4[nH]c2=O)C(=O)c2ccccc2-3)cc1"
assigned_class = "yes (1)"

[[record]]
molecule = "C#Cc1cccc(NC(=O)c2ccccc2NC(=O)CCl)c1"
assigned_class = "no (0)"

[[record]]
molecule = "Cc1ccc(C2Oc3ccccc3C3CC(c4cccs4)=NN32)cc1 (stereo not given)"
assigned_class = "no (0)"

[[record]]
molecule = "O=C(CCN1C(=O)/C(=C/c2ccc(Cl)cc2)SC1=S)NCCCN1CCOCC1"
assigned_class = "no (0)"

[[record]]
molecule = "Nc1n[nH]c2ccc([C@@H]3Nc4ccc5[nH]ncc5c4[C@H]4C5C=CC(C5)[C@@H]34)cc12 (stereo not given in full)"
assigned_class = "no (0)"

[[record]]
molecule = "CC(C)(O)c1cn(CCCCN2C(=O)C(=O)c3ccccc32)nn1"
assigned_class = "no (0)"

[[record]]
molecule = "C#CCOc1ccc2ncnc(NCc3cccc(NC(=O)CCl)c3)c2c1"
assigned_class = "no (0)"

[[record]]
molecule = "COc1cc2nc(N3CCCC3)nc(NCC3CCCCC3)c2cc1OC"
assigned_class = "yes (1)"

[[record]]
molecule = "COc1cccc(-c2nn(C(C)(C)C)cc2-c2ccnc(NCCCNS(=O)(=O)c3cccc4ccccc34)c2)c1"
assigned_class = "no (0)"

[[record]]
molecule = "O=c1oc2c(C(F)(F)F)cccc2cc1-c1csc(Nc2ccc(OCCF)cc2)n1"
assigned_class = "yes (1)"


###

- Tested on: SF-295 CNS
- test_name: NCI-60 one-dose screen, 48 h
- measurement_context: 10 µM unless noted
The panel holds about 83,000 compounds, 20% with a hit somewhere; the sample as a whole holds those more often. Active and inactive are the calls of the source. Rule for the calls: active = growth percent below 10; inactive = the rest.
Labels: t = active, f = inactive

[[record]]
compound = "O=C1Nc2ccc(Br)cc2C12Oc1ccccc1C1CC(c3ccc(F)cc3)=NN12 (centres undefined)"
assayed_target = "SF-295 CNS"
assigned_class = "f"

[[record]]
compound = "COc1cccc(-c2nn(C(C)(C)C)cc2-c2ccnc(NCCCNS(=O)(=O)c3ccc(C)cc3)c2)c1"
assayed_target = "SF-295 CNS"
assigned_class = "f"

[[record]]
compound = "O=S(=O)(Nc1ccc(NS(=O)(=O)c2ccccc2)c(Cl)c1)c1ccccc1"
assayed_target = "SF-295 CNS"
assigned_class = "f"

[[record]]
compound = "COc1ccc(/C=C\\c2cc(OC)c(OC)c(OC)c2)cc1OC(=O)c1cccc(Cn2cc(CCOC(=O)[C@H](N)Cc3cn(C)c4ccccc34)nn2)c1"
assayed_target = "SF-295 CNS"
assigned_class = "f"

[[record]]
compound = "COc1cccc(-c2nc3sccn3c2-c2ccnc(NCCCNS(=O)(=O)c3cccc(Cl)c3)c2)c1"
assayed_target = "SF-295 CNS"
assigned_class = "f"

[[record]]
compound = "Cc1nn(-c2cc(=O)[nH]c3ccccc23)c(N)c1C#N"
assayed_target = "SF-295 CNS"
assigned_class = "f"

[[record]]
compound = "O=C(COc1ccc(-c2nc3cc(Cl)c(Cl)cc3[nH]2)cc1)N=Nc1c(O)[nH]c2ccccc12"
assayed_target = "SF-295 CNS"
assigned_class = "t"

[[record]]
compound = "CN1CCN(Cc2ccc(NC(=O)c3cncc(C#Cc4cncn5ccnc45)c3)cc2C(F)(F)F)CC1"
assayed_target = "SF-295 CNS"
assigned_class = "f"

[[record]]
compound = "COc1ccc(CN2c3ccccc3Oc3ccccc32)cc1F"
assayed_target = "SF-295 CNS"
assigned_class = "f"

[[record]]
compound = "O=C(COc1cccc(/C=C2\\COc3ccc(Cl)cc3C2=O)c1)c1ccc(Cl)cc1"
assayed_target = "SF-295 CNS"
assigned_class = "f"

[[record]]
compound = "O=C1c2ccccc2C(=O)c2c1ccc1[nH]c(-c3cccs3)nc21"
assayed_target = "SF-295 CNS"
assigned_class = "f"

[[record]]
compound = "FC(F)(F)Oc1ccc2nc3nc4ccc[nH]c4cc3c2c1"
assayed_target = "SF-295 CNS"
assigned_class = "f"

[[record]]
compound = "CCOC(=O)c1sc2nc(-c3cccc(O)c3)nc(N3CCOCC3)c2c1C"
assayed_target = "SF-295 CNS"
assigned_class = "f"

[[record]]
compound = "C=C1C(=O)O[C@H]2[C@H]1CC/C(COC(=O)c1cc3cc(OC)ccc3[nH]1)=C\\CC[C@@]1(C)O[C@@H]21"
assayed_target = "SF-295 CNS"
assigned_class = "f"

[[record]]
compound = "Cn1ccnc1C(=O)/C=C/c1ccccc1"
assayed_target = "SF-295 CNS"
assigned_class = "f"

[[record]]
compound = "COc1cccc(-c2nc3sccn3c2-c2ccnc(NCCNS(=O)(=O)c3ccc(F)cc3)c2)c1"
assayed_target = "SF-295 CNS"
assigned_class = "f"

[[record]]
compound = "Nc1n[nH]c2ccc([C@@H]3Nc4ccc5[nH]ncc5c4[C@H]4C5C=CC(C5)[C@@H]34)cc12 (some centres undefined)"
assayed_target = "SF-295 CNS"
assigned_class = "t"

[[record]]
compound = "C=C1C(=O)O[C@H]2[C@H]1CC/C(C=Nc1ccc(C(F)(F)F)cc1N)=C\\CC[C@@]1(C)O[C@@H]21"
assayed_target = "SF-295 CNS"
assigned_class = "f"

[[record]]
compound = "CCCCC[C@H]1C/C=C2/C(=O)C=C[C@@H]2C/C=C\\CCCC(=O)O1"
assayed_target = "SF-295 CNS"
assigned_class = "t"

